Measured values drawn from PubChem BioAssay (EPA / NIEHS) for this set.

Biological target: Oxysterols receptor LXR-alpha (Homo sapiens)
Test: ATG_LXRa_TRANS: Attagene TRANS-FACTORIAL HepG2 Assay for human Liver X Receptor alpha (LXRa) (AID 2282980)
Conditions: HepG2 Attagene TRANS reporter, LXRa transactivation
Records with an inconclusive call do not appear. Active and inactive are the calls of the source. How the source made its calls: active means hit-call score of the fitted dose curve at least 0.9, where 1 is the maximum; inconclusive means response in the unintended direction; inactive means score below 0.9.
Response enum: y for active, n for inactive

Observe how each entry below is paired with its result.
CCN(CC)c1ccc(C(=O)c2ccccc2C(=O)O)c(O)c1: n
O=[N+]([O-])C1(Br)COCOC1: n
O=C(Nc1ccccc1)c1ccccc1O: n
CC(C)(C)C1CCCCC1=O (centres undefined): n
CCC(C)OC(=O)c1ccc(O)cc1 (centres undefined): n

Exercise: Hey, what did the test say about CC1=Nc2ccc3ccccc3c2C1(C)C ?
Solution: n

Exercise: Hey, what did the test say about CCCCCCCCCCCCCCCC(=O)OCC ?
Solution: n

Exercise: Hey, what did the test say about CCCCCCC(O)CO (centres undefined) ?
Solution: n

Exercise: Hey, what did the test say about COc1ccc(C(Cl)=C(c2ccc(OC)cc2)c2ccc(OC)cc2)cc1 ?
Solution: n

Exercise: Hey, what did the test say about CC(=O)OC(C)C ?
Solution: n

Exercise: Hey, what did the test say about COc1ccc(-c2coc3cc(O)ccc3c2=O)cc1 ?
Solution: n

Exercise: Hey, what did the test say about S=C(NC1CCCCC1)NC1CCCCC1 ?
Solution: n

Exercise: Hey, what did the test say about C1CN(SSN2CCOCC2)CCO1 ?
Solution: n

Exercise: Hey, what did the test say about C=CC=CC=CCCCCC ?
Solution: n

Exercise: Hey, what did the test say about Nc1cccc(C(F)(F)F)c1 ?
Solution: n

Exercise: Hey, what did the test say about O=C(c1ccc(O)cc1)c1ccc(O)cc1O ?
Solution: n

Exercise: Hey, what did the test say about C=C(C)c1cccc(C(C)(C)N=C=O)c1 ?
Solution: n

Exercise: Hey, what did the test say about CC(C)=CCC/C(C)=C\C#N ?
Solution: n

Exercise: Hey, what did the test say about CC=CC(=O)N(CC)c1ccccc1C ?
Solution: n

Exercise: Hey, what did the test say about CCCCCCCCCCC=CC#N ?
Solution: n

Exercise: Hey, what did the test say about O=c1n(CCO)c(=O)n(CCO)c(=O)n1CCO ?
Solution: n
